The origin of these recorded values is patent US20250059220A1.

test_system: human PTPN2 (1-387) (Homo sapiens (Human), UniProt P17706)
Sequence (P17706 other isoform, or with tags, fused parts or gaps): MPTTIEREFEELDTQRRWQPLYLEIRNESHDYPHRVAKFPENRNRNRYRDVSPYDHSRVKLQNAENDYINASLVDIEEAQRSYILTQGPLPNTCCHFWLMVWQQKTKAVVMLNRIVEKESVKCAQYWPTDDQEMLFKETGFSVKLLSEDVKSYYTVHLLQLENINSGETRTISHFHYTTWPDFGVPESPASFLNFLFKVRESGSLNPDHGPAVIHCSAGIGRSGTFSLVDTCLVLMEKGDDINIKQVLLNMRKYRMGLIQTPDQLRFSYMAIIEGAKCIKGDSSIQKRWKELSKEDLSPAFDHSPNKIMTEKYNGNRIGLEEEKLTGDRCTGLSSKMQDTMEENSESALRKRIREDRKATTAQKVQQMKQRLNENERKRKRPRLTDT
pIC50: −log10 of the molar value.
parameter: pIC50

See these solved cases before continuing.
> print(dat)
                                   compound                               test.system  parameter  reported.measurement
1  CC1CCc2c(sc(NC(=O)c3ccc4sc(C(F)(F)P(=O)(O)O)c(Br)c4c3)c2C#N)C1 (stereo not shown) [Compound 63]  human PTPN2 (1-387) (Homo sapiens (Human), UniProt P17706)      pIC50                  6.27
2  O=P(O)(O)C(F)(F)c1sc2c(OCCCC(F)(F)F)cc(CO)cc2c1Br [Compound 408]  human PTPN2 (1-387) (Homo sapiens (Human), UniProt P17706)      pIC50                  6.16

A: O=C(NCCc1c[nH]c2ccc(F)cc12)c1ccc2sc(C(F)(F)P(=O)(O)O)c(Br)c2c1 [Compound 94]
B: O=C(NCCn1cnnc1)c1ccc2sc(C(F)(F)P(=O)(O)O)c(Br)c2c1 [Compound 143]
Query block: Please indicate which item has the smaller measured pIC50: A versus B Reply briefly: the label of your chosen item.
Result block: B

* * *

Recorded below: IC50, system human PTPN1 (1-435) (Homo sapiens (Human), UniProt P18031).
parameter: IC50 (nM)

# count of solved cases: 10
> print(dat)
                                    compound  parameter  reported.measurement
 1  CC(C)=CCCOc1cc(C(N)=O)cc2c(Br)c(C(F)(F)P(=O)(O)O)sc12       IC50                  57.5
 2  CS(=O)(=O)CCCOc1cc(C(N)=O)cc2c(C(F)(F)F)c(C(F)(F)P(=O)(O)O)sc12       IC50                  12.7
 3  O=C(NCc1cccnn1)c1cc(OCCCc2ccncc2)c2sc(C(F)(F)P(=O)(O)O)c(Br)c2c1       IC50                    26
 4  O=C(NCc1cccnn1)c1cc(OCCCc2cccnc2)c2sc(C(F)(F)P(=O)(O)O)c(Br)c2c1       IC50                  17.4
 5  COc1cc(Cl)ccc1COc1cc(C(N)=O)cc2c(Br)c(C(F)(F)P(=O)(O)O)sc12       IC50                  76.7
 6  O=C(NC(c1cccnc1)C(F)(F)F)c1ccc2sc(C(F)(F)P(=O)(O)O)c(Br)c2c1 (single isomer, unassigned) [Compound 222b]       IC50                   707
 7  CCC(NC(=O)c1ccc2sc(C(F)(F)P(=O)(O)O)c(Br)c2c1)c1ccccn1 (stereo not shown)       IC50                  7210
 8  NC(=O)c1cc(OCC2CC(OC(F)(F)F)C2)c2sc(C(F)(F)P(=O)(O)O)c(Br)c2c1 (stereo not shown)       IC50                    62
 9  CCCC(C)Oc1cc(C(N)=O)cc2c(Br)c(C(F)(F)P(=O)(O)O)sc12 (stereo not shown)       IC50                   133
10  NC(=O)c1cc(CCCCS(N)(=O)=O)c2sc(C(F)(F)P(=O)(O)O)c(Br)c2c1       IC50                   140

P: O=P(O)(O)C(F)(F)c1sc2c(OCCCC(F)(F)F)cc(-c3ccn[nH]3)cc2c1Br
Q: O=C(NCC1CC1)c1ccc2sc(C(F)(F)P(=O)(O)O)c(Br)c2c1
Query block: # return whichever of P and Q has the smaller IC50 Lab note: record the label of whichever item you select.
Result block: P
